Molecular target: T1, CRH (CT Biotin) (human and mouse, C-terminal K-Biotin)
T1 construct: also called Peptide 4 (CRH-Biotin)
T1 peptide: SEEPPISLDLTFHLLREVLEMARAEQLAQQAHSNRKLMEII
Test: ELISA, biotin peptide on streptavidin plate
For each record, write down the corresponding pEC50.
One number for each entry, as −log10 of the molar value.

Example entries and their recorded answers appear below.
- Binder: "PR302341-55 (antibody, human IgG1, kappa, V domains shown, Humanized, PTM-removed variant of PR302341) VH: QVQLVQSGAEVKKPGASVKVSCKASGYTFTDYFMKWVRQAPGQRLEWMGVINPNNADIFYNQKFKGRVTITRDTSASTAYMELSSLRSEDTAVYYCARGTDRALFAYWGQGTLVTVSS VL: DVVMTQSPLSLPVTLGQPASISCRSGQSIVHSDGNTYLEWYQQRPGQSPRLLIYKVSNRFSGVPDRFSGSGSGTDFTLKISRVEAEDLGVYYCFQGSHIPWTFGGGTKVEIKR"
  Observed Property: "pEC50"
  Endpoint Result: 10.72
- Binder: "PR302309-11 (antibody, human IgG1, kappa, V domains shown, Humanized variant of PR302309) VH: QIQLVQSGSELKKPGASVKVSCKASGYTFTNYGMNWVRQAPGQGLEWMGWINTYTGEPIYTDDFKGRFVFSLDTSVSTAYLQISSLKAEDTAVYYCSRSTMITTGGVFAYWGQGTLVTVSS VL: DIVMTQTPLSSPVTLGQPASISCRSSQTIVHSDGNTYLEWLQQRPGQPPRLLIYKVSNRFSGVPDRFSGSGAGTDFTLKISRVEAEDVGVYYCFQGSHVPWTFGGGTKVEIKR"
  Observed Property: "pEC50"
  Endpoint Result: 10.49

Reported pEC50 of PR302309-8 (antibody, human IgG1, kappa, V domains shown, Humanized variant of PR302309) VH: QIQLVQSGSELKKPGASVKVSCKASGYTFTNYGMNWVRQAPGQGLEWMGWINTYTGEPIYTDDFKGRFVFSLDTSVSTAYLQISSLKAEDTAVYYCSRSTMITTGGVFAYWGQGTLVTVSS VL: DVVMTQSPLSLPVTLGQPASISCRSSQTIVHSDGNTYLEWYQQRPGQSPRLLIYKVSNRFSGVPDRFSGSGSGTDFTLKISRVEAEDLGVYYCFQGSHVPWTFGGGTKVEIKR : 10.54
